- measured-target: T1, human GLP-1 receptor (human, UniProt P43220 24-463)
- T1 construct: whole, on cells; also called hGLP-1R; hGLP1R
- test-protocol: [125I]-GLP-1 competition SPA, hGLP-1R membranes
reported-metric: Ki (nM)
Supply the numeric figure in nM, leaving out any unit text.

Per the record, YXEGTXTSDYSIXLDEKAQXEFIEXLIEGGPSSGAPPPS (Aib2; αMeF(2F)6; αMeL13; K17((2-[2-(2-Amino-ethoxy)-ethoxy]-acetyl)2-(γ-Glu)-CO-(CH2)18-CO2H); Aib20; αMeY25; C-terminal NH2) [Example 223] has Ki of 5.62

Per the record, YXEGTXTSDLSIXLDXKAQXEFIXXLIEGGPSSGAPPPS (Aib2; αMeF(2F)6; αMeL13; Orn16; K17((2-[2-(2-Amino-ethoxy)-ethoxy]-acetyl)2-(γ-Glu)-CO-(CH2)16-CO2H); Aib20; D-Glu24; αMeY25; C-terminal NH2) [Example 238] has Ki of 0.548

Per the record, YXEGTXTSDYSILLDKKAQXEFIEYLIEGGPSSG (Aib2; αMeF(2F)6; K17((2-[2-(2-Amino-ethoxy)-ethoxy]-acetyl)2-(γ-Glu)-CO-(CH2)16-CO2H); Aib20; C-terminal NH2) [Example 312] has Ki of 1.63

Per the record, XXEGTFTSDYSIXLDKKAQXAFIEYLIEGGPSSGAPPPS (D-Tyr1; Aib2; αMeL13; K17((2-[2-(2-Amino-ethoxy)-ethoxy]-acetyl)2-(γ-Glu)-CO-(CH2)18-CO2H); Aib20; C-terminal NH2) [Example 334] has Ki of 2.17

Per the record, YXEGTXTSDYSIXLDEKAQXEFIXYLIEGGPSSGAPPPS (Aib2; αMeF(2F)6; αMeL13; K17((2-[2-(2-Amino-ethoxy)-ethoxy]-acetyl)2-CO-(CH2)16-CO2H); Aib20; D-Glu24; C-terminal NH2) [Example 214] has Ki of 1.99

Per the record, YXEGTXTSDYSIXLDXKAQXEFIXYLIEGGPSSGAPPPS (Aib2; αMeF(2F)6; Aib13; Orn16; K17((2-[2-(2-Amino-ethoxy)-ethoxy]-acetyl)2-(γ-Glu)-CO-(CH2)16-CO2H); Aib20; D-Glu24; C-terminal NH2) [Example 247] has Ki of 4.39

Per the record, XXEGTFTSDYSIXLDXKAQXAFVEYLIEGGPSSGAPPPS (D-Tyr1; Aib2; αMeL13; Orn16; K17((2-[2-(2-Amino-ethoxy)-ethoxy]-acetyl)2-(γ-Glu)-CO-(CH2)18-CO2H); Aib20; C-terminal NH2) [Example 360] has Ki of 1.74
